Hello, the source for this data is PubChem BioAssay (Tox21), in case you need it.

- System Name: 5-hydroxytryptamine receptor 2A (Homo sapiens)
- Procedure Text: 5-hydroxytryptamine receptor 2A (HTR2A) small molecule antagonists, cell-based qHTS assay (AID 1963586); also: nearly all actives have a fitted effect of over 45% in size
- Setup Conditions: HTR2A-CHO cells, DOI-induced calcium flux, fluorescence; series mostly up to 61.5 µM
Records with an inconclusive call do not appear. Activity calls are given as the source filed them. Calls follow the shape of the full dose curve.
Entry note: the call must match one of active, inactive

1) CC(C)=C[C@@H]1[C@@H](C(=O)OCc2coc(Cc3ccccc3)c2)C1(C)C | inactive
2) Oc1c(Br)cc(Br)cc1Br | inactive
3) CCCCCCCCCCCCCCn1cc[n+](C)c1 | inactive
4) O=S(=O)(c1ccc(Cl)cc1)c1cc(Cl)c(Cl)cc1Cl | inactive
5) O=C(O)c1ccccn1 | inactive
6) CC(Oc1ccc(Cl)cc1Cl)C(=O)O (stereo not given) | inactive

IN: Write down the call the test reported for this compound. Item: "N#CSCSC#N"
OUT: inactive

IN: Write down the call the test reported for this compound. Item: "Cc1ccc(Cl)c(O)c1"
OUT: inactive

IN: Write down the call the test reported for this compound. Item: "CCc1ccccc1C"
OUT: inactive

IN: Write down the call the test reported for this compound. Item: OCC(Br)CBr (stereo not given)
OUT: inactive

IN: Write down the call the test reported for this compound. Item: "O=C(O)c1cc(Oc2ccc(C(F)(F)F)cc2Cl)ccc1[N+](=O)[O-]"
OUT: inactive

IN: Write down the call the test reported for this compound. Item: "CCCCCCCCCCOC(=O)c1ccccc1C(=O)OCCCCCCCCCC"
OUT: inactive

IN: Write down the call the test reported for this compound. Item: "CCC(=O)Nc1ccc(Cl)c(Cl)c1"
OUT: inactive

IN: Write down the call the test reported for this compound. Item: "O=[N+]([O-])c1cc(Cl)ccc1Cl"
OUT: inactive

IN: Write down the call the test reported for this compound. Item: "CCOP(=S)(OCC)OP(=S)(OCC)OCC"
OUT: inactive

IN: Write down the call the test reported for this compound. Item: C[C@H]1O[C@H](OC2[C@@H](O)[C@@H](O)C(O)[C@H](O)[C@H]2O)[C@@H](N)C[C@@H]1N=C(N)C(=O)O (stereo not given in full)
OUT: inactive

IN: Write down the call the test reported for this compound. Item: "CCc1cc(C)cc(CC)c1-c1c(OC(=O)C(C)(C)C)n2n(c1=O)CCOCC2"
OUT: inactive

IN: Write down the call the test reported for this compound. Item: "O=C1CC(=O)NC(=O)N1"
OUT: inactive

IN: Write down the call the test reported for this compound. Item: "O=C(Cc1ccccc1)c1ccccc1"
OUT: inactive

IN: Write down the call the test reported for this compound. Item: "CC(C)(OOC(C)(C)c1ccccc1)c1ccccc1"
OUT: inactive

IN: Write down the call the test reported for this compound. Item: "Oc1ccc(C(c2ccc(O)cc2)(C(F)(F)F)C(F)(F)F)cc1"
OUT: active

IN: Write down the call the test reported for this compound. Item: "Nc1c(Cl)c(Cl)nc(C(=O)O)c1Cl"
OUT: inactive

IN: Write down the call the test reported for this compound. Item: "C[C@H]1CCCC(=O)CCC/C=C/c2cc(O)cc(O)c2C(=O)O1"
OUT: inactive
